The entries below are paired with their reported kon.
# target-or-test-system: T1, GST-human NOGO-A56 (human)
# T1 construct: Expressed in E. coli BL21 from pGEX-6P1 and purified on glutathione-sepharose; the GST tag is part of the protein in the assays; also called GST-Nogo-A 5+6; GST Nogo-A 5 + 6
# T1 sequence (chain, as listed by the source limits assumed): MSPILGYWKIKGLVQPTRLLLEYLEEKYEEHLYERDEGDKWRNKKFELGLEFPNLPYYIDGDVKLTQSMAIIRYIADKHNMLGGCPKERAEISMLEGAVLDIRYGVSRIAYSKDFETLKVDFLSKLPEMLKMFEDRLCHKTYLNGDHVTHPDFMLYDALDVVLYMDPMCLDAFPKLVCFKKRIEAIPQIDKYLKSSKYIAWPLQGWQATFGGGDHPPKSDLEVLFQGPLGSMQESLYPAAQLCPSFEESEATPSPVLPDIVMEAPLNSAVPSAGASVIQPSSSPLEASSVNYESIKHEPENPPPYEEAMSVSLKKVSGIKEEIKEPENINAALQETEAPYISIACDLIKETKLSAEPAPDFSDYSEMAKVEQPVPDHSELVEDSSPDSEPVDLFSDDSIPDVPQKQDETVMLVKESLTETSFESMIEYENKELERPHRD
# assay-summary: SPR (Biacore), GST-human NOGO-A56 amine-coupled to CM5, antibody flowed over, 25 C

binder	kon [M⁻¹ s⁻¹]
H20L16 (antibody, human IgG1, kappa, V domains shown, IgG1 (L235A, G237A) / kappa; CAMPATH-1H signal (1-19) left out) VH: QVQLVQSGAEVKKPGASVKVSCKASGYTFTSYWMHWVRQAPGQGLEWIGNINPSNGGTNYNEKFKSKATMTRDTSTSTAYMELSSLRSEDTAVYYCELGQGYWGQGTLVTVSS VL: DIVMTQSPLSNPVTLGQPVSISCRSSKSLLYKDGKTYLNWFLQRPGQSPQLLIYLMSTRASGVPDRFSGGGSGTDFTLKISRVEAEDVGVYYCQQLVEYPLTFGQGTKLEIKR	4.69e+06
H16L16 (antibody, human IgG1, kappa, V domains shown, IgG1 (L235A, G237A) / kappa; CAMPATH-1H signal (1-19) left out) VH: QVQLVQSGAEVKKPGASVKVSCKASGYTFTSYWMHWVKQRPGQGLEWIGNINPSNGGTNYNEKFKSKATLTVDKSTSTAYMELSSLRSEDTAVYYCELGQGYWGQGTLVTVSS VL: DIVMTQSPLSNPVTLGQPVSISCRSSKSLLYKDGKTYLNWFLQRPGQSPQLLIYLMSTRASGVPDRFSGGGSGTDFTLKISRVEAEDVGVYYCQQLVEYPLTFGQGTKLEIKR	3.43e+06
H28L13 (antibody, human IgG1, kappa, V domains shown, IgG1 (L235A, G237A) / kappa; CAMPATH-1H signal (1-19) left out; also called H28FL L13FL) VH: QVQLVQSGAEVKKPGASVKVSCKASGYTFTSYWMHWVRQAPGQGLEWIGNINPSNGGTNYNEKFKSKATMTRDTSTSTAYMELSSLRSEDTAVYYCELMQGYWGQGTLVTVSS VL: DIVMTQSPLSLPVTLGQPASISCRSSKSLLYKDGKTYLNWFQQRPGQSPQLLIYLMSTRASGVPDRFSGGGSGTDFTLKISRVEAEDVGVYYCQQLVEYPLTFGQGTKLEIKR	4.16e+06
H27L13 (antibody, human IgG1, kappa, V domains shown, IgG1 (L235A, G237A) / kappa; CAMPATH-1H signal (1-19) left out) VH: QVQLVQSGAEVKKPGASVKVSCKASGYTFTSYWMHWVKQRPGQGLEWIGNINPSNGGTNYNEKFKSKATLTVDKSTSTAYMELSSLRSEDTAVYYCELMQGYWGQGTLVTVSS VL: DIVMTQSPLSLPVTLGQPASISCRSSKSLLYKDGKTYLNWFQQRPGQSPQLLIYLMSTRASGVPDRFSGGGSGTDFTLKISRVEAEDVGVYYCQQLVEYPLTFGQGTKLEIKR	3.5e+06
